Measured values drawn from ChEMBL document CHEMBL1201862 for this set.

system: BT-549; test: NCI tumour cell line growth inhibition, 48 h
Active and inactive are the calls of the source. No stated cut-off is given here; in the data, active = GI50 up to about 1.1 µM and inactive = higher.
The reply should be one of these categories: active, inactive

Please review the entries below; each comes with its answer.
1) COC(=O)C(Cc1ccccc1)C(=O)NC(CNC(=O)OCc1ccccc1)C(=O)OCc1ccccc1 (stereo unspecified) ... inactive
2) Cc1ccsc1/C=N/Nc1ncccn1 ... inactive
3) CCCCOc1ccc(NC(=N)Nc2ccc(Cl)cc2)cc1 ... inactive
4) NC1CCC[C@@H](O)[C@H]1O (stereo partly specified) ... inactive
5) NC(=O)N/N=C(\Cc1cc(=O)oc2cc(O)ccc12)C(=O)Nc1ccccc1C(N)=O ... inactive

Challenge: Lab log entry: `COC1=CC(=O)C2=C(C1=O)[C@H]1CC[C@]3(C)[C@@H](OC(C)=O)CC[C@H]3[C@@H]1CC2` — outcome as called in the assay?
Response given: inactive

Challenge: Lab log entry: `COc1c2c(cc3oc(=O)ccc13)OC(C)(C)C=C2` — outcome as called in the assay?
Response given: inactive

Challenge: Lab log entry: `Cc1ccc2nc(-n3c(/C=C/c4ccccc4O)nc4ccccc4c3=O)sc2c1` — outcome as called in the assay?
Response given: inactive

Challenge: Lab log entry: `BrCC[P+](c1ccccc1)(c1ccccc1)c1ccccc1` — outcome as called in the assay?
Response given: inactive

Challenge: Lab log entry: CCC1c2[nH]c3ccccc3c2C[C@H]2C(=O)NC(COC(C)(C)C)C(=O)N12 (stereo partly specified) — outcome as called in the assay?
Response given: inactive

Challenge: Lab log entry: CC(C)(C)OC(=O)CCC1NC(=O)[C@@H]2Cc3c([nH]c4ccccc34)C(C3CCCCC3)N2C1=O (stereo partly specified) — outcome as called in the assay?
Response given: inactive

Challenge: Lab log entry: `CCCC(CCC(=O)O)(CCC(=O)O)[N+](=O)[O-]` — outcome as called in the assay?
Response given: inactive

Challenge: Lab log entry: `N#CC(C#N)=C(N)/C(C#N)=C/c1cc(O)c(O)c(Br)c1` — outcome as called in the assay?
Response given: inactive

Challenge: Lab log entry: COc1ccc(C(NCCNC(c2ccc(OC)c(OC)c2)c2cc3c(cc2O)OCO3)c2cc3c(cc2O)OCO3)cc1OC (stereo unspecified) — outcome as called in the assay?
Response given: inactive
